Target: T1, TNFR2-His (Sino Biological, 10417-H08H, NP_001057.1 Met1-Asp257, with multi-histidine tag expressed on … (human, UniProt P20333 23-257))
T1 construct: range 1-257; Bought protein; also called recombinant human TNFR2 protein; TNFR2-His antigen; not shown: C-terminal multi-histidine tag
T1 sequence (looked up): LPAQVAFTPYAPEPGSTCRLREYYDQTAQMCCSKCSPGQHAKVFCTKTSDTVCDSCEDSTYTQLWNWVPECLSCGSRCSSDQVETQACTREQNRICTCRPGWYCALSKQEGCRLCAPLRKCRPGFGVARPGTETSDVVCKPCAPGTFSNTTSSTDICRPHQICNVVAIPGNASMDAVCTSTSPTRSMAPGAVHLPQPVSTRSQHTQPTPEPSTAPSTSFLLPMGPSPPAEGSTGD
Assay: BLI, antibody captured on AHC probe, TNFR2 in solution
measuredQuantity: pKd
# reply with the number alone; pKd is -log10 of concentration in mol/L

>  <binder>
12E12huVH4 + huVL4(P07291) (antibody, V domains shown, Humanized 12E12) VH: EVQLVQSGAEVKKPGATVKISCKVSGFNIKDFYIHWVQQAPGKGLEWIGRVDPEDGNTEYAPNFQDRVTITADTSTDTAYMELSSLRSEDTAVYYCSTWDGFSYFDYWGQGTTVTVSS VL: EAVVTQSPATLSLSPGERATLSCRSSTGPVTTNNYANWVQQKPGQAFRGLIGGTNDRAPGIPARFSGSGSGTDTTLTISSLQPEDFAVYYCALWYRNHWVFGGGTKLEIK

>  <pKd>
8.32

$$$$
>  <binder>
12E12-huVH6 + huVL4(P08940) (antibody, V domains shown, Humanized 12E12) VH: QVQLVQSGAEVKKPGASVKVSCKASGYTITDFYIHWVRQAPGQGLEWIGRVDPEDGNTEYAPNFQDRATMTTDTSTSTAYLELSSLRSEDTAVYYCSTWDGFSYFDYWGQGTTVTVSS VL: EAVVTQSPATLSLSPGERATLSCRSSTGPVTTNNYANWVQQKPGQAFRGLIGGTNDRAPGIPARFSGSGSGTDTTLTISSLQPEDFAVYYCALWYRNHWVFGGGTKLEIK

>  <pKd>
8.39

$$$$

Memo: 12E12huVH5 + huVL4(P07292) (antibody, V domains shown, Humanized 12E12) VH: EVQLVQSGAEVKKPGATVKISCKVSGFNIKDFYIHWVQQAPGKGLEWIGRVDPEDGNTEYAEKFQGRVTITADTSTDTAYMELSSLRSEDTAVYYCSTWDGFSYFDYWGQGTTVTVSS VL: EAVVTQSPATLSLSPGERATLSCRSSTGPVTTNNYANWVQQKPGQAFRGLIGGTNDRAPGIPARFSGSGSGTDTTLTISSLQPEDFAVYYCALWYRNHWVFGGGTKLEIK , reported pKd: 8.50

Memo: 12E12huVH5 + huVL2(P07286) (antibody, V domains shown, Humanized 12E12) VH: EVQLVQSGAEVKKPGATVKISCKVSGFNIKDFYIHWVQQAPGKGLEWIGRVDPEDGNTEYAEKFQGRVTITADTSTDTAYMELSSLRSEDTAVYYCSTWDGFSYFDYWGQGTTVTVSS VL: QAVVTQEPSLTVSPGGTVTLTCRSSTGPVTTNNYANWVQQKPGQAFRGLIGGTNDRAPGVPARFSGSLLGGKAALTLSGAQPEDEAEYYCALWYRNHWVFGGGTKLTVL , reported pKd: 8.77

Memo: 12E12-huVH8 + huVL4(P08942) (antibody, V domains shown, Humanized 12E12) VH: EVQLVQSGAEVKKPGATVKISCKVSGYTITDFYIHWVQQAPGKGLEWMGRVDPEDGNTEYAPNFQDRVTITADTSTDTAYMELSSLRSEDTAVYYCSTWDGFSYFDYWGQGTTVTVSS VL: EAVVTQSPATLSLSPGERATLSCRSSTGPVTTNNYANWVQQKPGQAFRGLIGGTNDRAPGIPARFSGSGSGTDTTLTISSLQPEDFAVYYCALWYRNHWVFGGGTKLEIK , reported pKd: 8.49
